The measurements presented in this section are drawn from PubChem BioAssay AID1159580.

experiment: chemical genetic growth profiling, strain panel (AID 1159580);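 also: tested at 20 µM; growth read once vehicle control cultures reached saturation at 30 °C; 1 = growth at the plate median or of vehicle wells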; settings: S. cerevisiae deletion strains, growth OD, locus YMR129W, stronger effect = lower value
The campaign covered roughly 5,500 compounds. About 2,000 (36%) were called active. Not shown: some 18% with an inconclusive outcome. Some of the results follow.
Values of normalized growth strictly less than 1 map to 1 (yes), and values of at least 1 map to 0 (no).

INSERT INTO results (compound_structure_string, discrete_label) VALUES
  ('COc1cc2c(cc1-c1coc3c4c(c(OC)cc3c1=O)OC(C)(C)C=C4)OCO2', '0 (no)');

With those in mind, consider the next compound.
Just wondering, is normalized growth of `C=C(C)c1cc2cc(C(C)=O)c(O)cc2o1` below 1?
1 (yes)

====

test: chemical genetic growth profiling, strain panel (AID 1159580);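 also: tested at 20 µM; growth read once vehicle control cultures reached saturation at 30 °C; 1 = growth at the plate median or of vehicle wells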; settings: S. cerevisiae deletion strains, growth OD, locus YJL095W, strain BCK1 (second series), stronger effect = lower value
About 2,000 (36%) of roughly 5,500 compounds were called active. Inconclusive results (about 18%) are left out. The list shows a part of the results.
PROPERTY LABEL: normalized growth

INSERT INTO results (compound, property_label, experimental_result) VALUES
  ('COc1cc(O)c(C(C)=O)c(OC)c1', 'normalized growth', '0.996 (inactive)'),
  ('COc1c(O)cc(O)cc1O', 'normalized growth', '1 (inactive)'),
  ('COc1cc(OC)c2c(c1Cl)OC1(C2=O)C(O)=CC(=O)CC1C (stereo unspecified)', 'normalized growth', '1 (inactive)'),
  ('CC(=O)N[C@@H](CC(=O)O)C(=O)O', 'normalized growth', '0.999 (inactive)'),
  ('CC(=O)O[C@@H]1CC2C(C)(C)[C@H](O)C[C@H](O)[C@]2(C)C2CC[C@@]3(C)C(=CC(=O)O[C@H]3c3ccoc3)[C@@]21C (stereo partly specified)', 'normalized growth', '0.991 (inactive)');

Now for the compound whose normalized growth we want.
Record request: normalized growth value, item O=C1OC(=O)C2C3CCC(O3)C12 (stereo unspecified)
1.01 (inactive)

====

assay: chemical genetic growth profiling, strain panel (AID 1159580);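 also: tested at 20 µM; growth read once vehicle control cultures reached saturation at 30 °C; 1 = growth at the plate median or of vehicle wells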; details: S. cerevisiae deletion strains, growth OD, locus YOR083W, strain WHI5, stronger effect = lower value
The campaign covered roughly 5,500 compounds. About 2,000 (36%) were called active. Another 18% or so got no clear call; they are omitted. This is one part of the list.
PROPERTY LABEL: normalized growth
Provide a numeric answer; units are not to be included.

For orientation, consider the following solved cases.
INSERT INTO measurements (molecule, property_label, experimental_result) VALUES
  ('O=C(CCCN1CC=C(n2c(=O)[nH]c3ccccc32)CC1)c1ccc(F)cc1', 'normalized growth', 0.978),
  ('O=c1[nH]c2ccccc2n1CCCN1CCC(n2c(=O)[nH]c3cc(Cl)ccc32)CC1', 'normalized growth', 0.911),
  ('Cc1c(N(C)CS(=O)(=O)O)c(=O)n(-c2ccccc2)n1C', 'normalized growth', 1.02),
  ('COc1c2c(cc3occ(-c4ccc5c(c4)OCO5)c(=O)c13)OC(C)(C)C=C2', 'normalized growth', 0.961);

For the molecule shown here, `CN(C)c1nc(N(C)C)nc(N(C)C)n1` , give the reported normalized growth.
0.956

Tell me the measured normalized growth of `COc1cc2c(cc1-c1coc3c4c(c(OC)cc3c1=O)OC(C)(C)C=C4)OCO2` , please.
0.959

Consider the molecule shown here: CC1=C2CCC3C(CC[C@]4(C)C(=O)CCC34)[C@@]2(C)CCC1=O (stereo not given in full) What is its recorded normalized growth?
0.915

Request the reported normalized growth associated with CC(C(=O)O)c1ccc(N2Cc3ccccc3C2=O)cc1 (stereo not given)
0.965

Entry `COc1cc(OC)c2c(=O)c(-c3ccc4c(c3)OCO4)coc2c1` has what normalized growth?
0.98

Name the reported normalized growth value associated with the molecule `CC1(C)C=Cc2c(cc3occ(-c4ccc5c(c4)OCO5)c(=O)c3c2O)O1`
0.928
